Reported values of apparent KD of MS2 coat protein for individual entries
- System: MS2 coat protein
- Assay Summary: apparent KD of MS2 coat protein; designed switch direction (-1 OFF switch, 1 ON switch): 1; higher = weaker reporter binding
- Details: Eterna round: R95; input ligand: none
Just the number in µM, nothing appended.

Reference set, count: 2
1) UCUUGGUUUUUGCUCGUUUUUUGUGUUGAACAUGAGGAUCACCCAUGUAUUGUACGGUCCGGUUUAGUGAUGAUCCG [JMF 73] (puzzle: Sensor for hsa-mir-208a)	0.0456
2) AGGAAACAUGAGGAUCACCCAUGUAUCGAGCCGCGAGGAUAUGGGUAUCAAAGGCGAGGAUCAGAAGGUGCAGGCG [Eseddierve] (puzzle: Same State 1)	0.153

Form field, apparent KD of MS2 coat protein with MS2 coat protein, item CUACUACAUGAGGAUCACCCAUGUUGUAGUGAUGCAGGAUAUGUGUGACCAGAAGAUGAAACAGAAGGGCAAAGAA [JR_SS!_Sub002] (puzzle: Same State 1) : 0.0152

* * *

- Test system: MS2 coat protein
- Assay Summary: apparent KD of MS2 coat protein; designed switch direction (-1 OFF switch, 1 ON switch): 1; higher = weaker reporter binding
- Details: input ligand: FMN 200 uM
Reported values of apparent KD of MS2 coat protein for individual entries
Reply with the number and its unit after it.

Reference set, count: 8
1) ACAUGAGAGUUAGGAUAUCUUGUACCUACAUGUGACAUGAGGAUCACCCAUGUGGUAAGUAUGACAGAGAAGGAACAGAUAUGU [Equivalance 69 - Jieux - Same State NG 2] (Eterna round: R96, puzzle: Same State NG 2)	36.2 nM
2) UUGAUUAACGUAGGAUAUCGACCUACAUGAGGAUCACCCAUGUCUUUGUAUAGUUUUUUUUGUUACGAGAAGGACGUUAUGUAU [JR_SSNG2_Sub067] (Eterna round: R96, puzzle: Same State NG 2)	78.6 nM
3) AUUGCUUACGCAGGAUAUGAUGCGAAAAUUGCGUCAGAAGGGUGAAGUGACUCGUUGCAACAGGACAUGAGGAUCACCCAUGUC [SameState NG1 #91] (Eterna round: R96, puzzle: Same State NG 1)	89 nM
4) GAGCCAGUCCGAGGAUAUUCGUAGUACCACAUGAGGAUCACCCAUGUGGGCUCAGAAGAGCCCUUGGAGAAGGCGGGCUGGCUC [SS-NG2-LRO20] (Eterna round: R96, puzzle: Same State NG 2)	9.67 nM
5) GGAAUAUUUACAGGAUAUGAGUUGUAAAGUCGAUCAGAAGGGUAGGUGUUUUGCACGGUGUGUUACAUGAGGAUCACCCAUGUU [SameState NG1 #22] (Eterna round: R96, puzzle: Same State NG 1)	74.1 nM
6) ACAUGAGACCGAGGAUAUUUUGUACCUACAUGUGACAUGAGGAUCACCCAUGUGGUAAGUAUGAGAAAGAAGGCGGAGAUAUGU [Equivalence 20 - Jieux - Same State NG 2] (Eterna round: R96, puzzle: Same State NG 2)	22.4 nM
7) GGGAGAGGCGCAGGAUAUGGUGAGGAUUACCCACUAGAAGGGUGCACAUGAGAAUCGAACAUGAGGAUCACCCAUGUUCUGAGC (Eterna round: R96, puzzle: Same State NG 1)	189 nM
8) AGCUAUUAAUCAGGAUAUAGGGACAUGAGGAUCACCCAUGUAUACAUGAUGAAAUGUGAUCACGUCUAGAAGGGAUUACUAACA [SameState NG2 #40] (Eterna round: R96, puzzle: Same State NG 2)	236 nM

The value of apparent KD of MS2 coat protein measured for the sequence GGUAGGUUACUACCAAACAUGAGGAUCACCCAUGUAAAUGGGAAGGAUAUGGUACCUAUUUGGUACCAGAAGGUCUAAUUAAUU [JL Fiskers NG3ss - 2 mod 1] (Eterna round: R96, puzzle: Same State NG 3) turned out to be 332 nM

The value of apparent KD of MS2 coat protein measured for the sequence GCUCGGAUGAUGACCCACAUGAGGAUCACCCAUGUGCGUGGGCAGGAUAUCUAGAUUAAGGAUGUAGAGAAGGGUCUACCGAGC [SameState NG3 #31] (Eterna round: R96, puzzle: Same State NG 3) turned out to be 964 nM

The value of apparent KD of MS2 coat protein measured for the sequence AAAACAUGACGAGGAUAUGGAACAUGAGGAUCACCCAUGUAUGUUCCAUAACGCGAAUGACGAAUCCAGAAGGCGUCGUGAAAA [Mat - Same State NG 2 - JL mod - D27] (Eterna round: R96, puzzle: Same State NG 2) turned out to be 25.1 nM

The value of apparent KD of MS2 coat protein measured for the sequence GUGGCGGGUUGAGGAUAUUGGUUGCCUAUGUUUUACAUGAGGAUCACCCAUGUGGGUUGCGGUUUCGAGAAGGUAGGUUGCUGG [salish99_SSNG2_r04_047] (Eterna round: R96, puzzle: Same State NG 2) turned out to be 420 nM

* * *

- Tested on: MS2 coat protein
- Assay Summary: apparent KD of MS2 coat protein; designed switch direction (-1 OFF switch, 1 ON switch): -1; higher = weaker reporter binding
- Details: input ligand: FMN 200 uM
Rule: MET for apparent KD of MS2 coat protein not less than 40 nM, NOT MET for anything less.

1. AGCAUGCAGCAGGAUAUCGAUCCGCAGUAUGAUCGAGAAGGGCUGACAUGAGGAUCACCCAUGUGCGUCCUAGG [jl-ex6-4.42 ViennaUCT mod] (Eterna round: R97, puzzle: Exclusion 6)	MET
2. UACAUGAGGAUCACCCAUGUUUUGUCGUGUAUGGUAUUUAUCUAGGAUAUCAAUUGAUUUAUUUAUGAGAAGGAGAAUAUUAAU [JMF's solution 15] (Eterna round: R96, puzzle: Exclusion NG 3)	MET
3. CAGUACUGAGGAUAUACAUGAGGAUCACCCAUGUAAUAAGGUUAGGAAACUAACCUAUGUAGAAGGCAGUACUG [Eli x3 4.07] (Eterna round: R97, puzzle: Exclusion 3)	NOT MET
4. GUUUUAUAUGAAGGAUAUACUUAACAUGAGGAUCACCCAUGUGGUGUUGUGAGUGAGUGAGUUUAGUAGAAGGUCAAUGAUUUU [JMF's solution 77] (Eterna round: R96, puzzle: Exclusion NG 2)	MET
5. AAACCUCACAACCGUUAAAACAUGAGGAUCACCCAUGUGCCGUAACGGCGCAUGGUCGAGCUAGGCUCGUCCAUGCA [Zamacelaso] (Eterna round: R96, puzzle: Sensor v2, turn-off variant)	NOT MET

QUERY: Kindly determine if apparent KD of MS2 coat protein recorded for CAUGAUUGGGAAGGAUAUUGACCUAGUUAGCGACGAGAAGGUCCCUGUCACAUGAGGAUCACCCAUGUGAAUCUGGUGAAAGAG [Ex NG1 #100] (Eterna round: R96, puzzle: Exclusion NG 1) is above or exactly 40 nM.
RESULT: NOT MET

QUERY: Kindly determine if apparent KD of MS2 coat protein recorded for UGCAGACGAGGAUAUGAUUAAUAAUACAUGAGGAUCACCCAUGUAAUACUGAUCUAUGGAUCAGAAGGCGUCUGCA [E5/6-A1] (Eterna round: R97, puzzle: Exclusion 5) is above or exactly 40 nM.
RESULT: NOT MET

* * *

- System: MS2 coat protein
- Assay Summary: apparent KD of MS2 coat protein; designed switch direction (-1 OFF switch, 1 ON switch): -1; higher = weaker reporter binding
- Details: Eterna round: R95; input ligand: microRNA oligo, concentration not stated
Reported values of apparent KD of MS2 coat protein for individual entries
Just the number in nM, nothing appended.

Reference set, count: 6
1. CUGAUGUGAGGAUAUCUAAAAGAAACUGGGCAAAAUACCAGAGAGAAGGCACAUGAGGAUCACCCAUGUAACGA [Rabigeri] (puzzle: Exclusion 4)	19.5
2. AAAAAGCGAGGAUAUACAGGAAAAGAAAAGAAAAGAAAAGCACAUGAGGAUCACCCAUGUAGAAGGCGCGAAAA [Exclusion 2 #3] (puzzle: Exclusion 2)	24.7
3. UCAUGGAAGCAGGAUAUGCUUGUUUAAUUGUUUGCAGAAGGGCUAACAUGAGGAUCACCCAUGUAAGAGGUCUA [JR_E6_Sub063] (puzzle: Exclusion 6)	35.3
4. AGUAACUAUCACGAAAGUGAUAGUUACACAAGUGAAUAAACAUGAGGAUCACCCAUGUCCUCAUUUGCUCGUUUUAU [Sensor 3 - 17] (puzzle: Sensor v3, turn-off variant 2)	553
5. AGUACUAACACGAAAGUGUUAGUACAAUAAGCUAGUGGAACAUGAGGAUCACCCAUGUCCUCAUUAGCUCGUCUUGU [Mat - Sensor v3 - Turn-off var 2 - D39] (puzzle: Sensor v3, turn-off variant 2)	34.8
6. AAUGCCGUAGGAUAUAUAUGGCAGAUCGCACGUCCUGAAAGACAUGAGGAUCACCCAUGUAGAAGGGCGGAAAC [Ceisisan] (puzzle: Exclusion 2)	14.1

The value of apparent KD of MS2 coat protein measured for the sequence AUAAUUUAAGUGAGGAUAUACCUAUGGAAACAUAGGUAGAAGGCACAUGAGGAUCACCCAUGUUUUUACACAAA [Fiskers BMX 4 - 2] (puzzle: Brourd's mod of Exclusion 4) turned out to be 18.1

The value of apparent KD of MS2 coat protein measured for the sequence GAAUAGGCAGGAUAUACAUGAGGAUCACCCAUGUGCCUGCGAAAGGUACGUUCGAAAGGUAGAAGGGCCUAAAC [ChP 13.04.2015 #6] (puzzle: Exclusion 3) turned out to be 12.2

The value of apparent KD of MS2 coat protein measured for the sequence GAUUAUGCGAGCUUUAGGGACAUGAGGAUCACCCAUGUUCGUCUUAUUAAUCUAGGUACGCUGACAUACCUAAAUCU [JMF 98] (puzzle: Sensor v3, turn-off variant 1) turned out to be 30

The value of apparent KD of MS2 coat protein measured for the sequence UUUUCUUUUGUGAGGAUAUACUUGUUUUUUUUUUUGUAGAAGGCACAUGAGGAUCACCCAUGUUUUCUUUUCUG [JR_BME4_Sub026] (puzzle: Brourd's mod of Exclusion 4) turned out to be 20.6

The value of apparent KD of MS2 coat protein measured for the sequence UAUUUGUCAGGAUAUGAGUCGUAGAACAAUAGUACUACGUCUCAGAAGGGACAUGAGGAUCACCCAUGUGCCUC [Fiskers Ex 4 Super Stable 44 mod 29] (puzzle: Exclusion 4) turned out to be 25.5

The value of apparent KD of MS2 coat protein measured for the sequence GAGGAGCAAGGAUAUACGAGGAUAUGGUAGGUUGGAGAGUGACAUGAGGAUCACCCAUGUAGAAGGUGCGAGGG [JR_Exclu2_Sub098] (puzzle: Exclusion 2) turned out to be 55.5
